molecules and their reported MIC
- System: Pseudomonas aeruginosa
- test-details: Antibacterial activity against IMP-13 producing Pseudomonas aeruginosa clone C2 isolate NA-14X-12 by Etest method
- Assay type: functional

molecule	value-measured
C[C@H]1COc2c(N3CCN(C)CC3)c(F)cc3c(=O)c(C(=O)O)cn1c23.C[C@H]1COc2c(N3CCN(C)CC3)c(F)cc3c(=O)c(C(=O)O)cn1c23.O	> 32 µg/mL
CCN1CCN(C(=O)N[C@@H](C(=O)N[C@@H]2C(=O)N3[C@@H]2SC(C)(C)[C@@H]3C(=O)O)c2ccccc2)C(=O)C1=O	16 µg/mL
C[C@@H](O)[C@H]1C(=O)N2C(C(=O)O)=C(S[C@@H]3CN[C@H](C(=O)N(C)C)C3)[C@H](C)[C@H]12	> 32 µg/mL

Task: Reported MIC for C[C@@H](O)[C@H]1C(=O)N2C(C(=O)O)=C(SCCNC=N)C[C@H]12 [IMIPENEM ANHYDROUS] : what is it?
Output: > 32 µg/mL

Task: Would you mind telling me what MIC value was observed for `CC(C)(O/N=C(\C(=O)N[C@@H]1C(=O)N2C(C(=O)[O-])=C(C[n+]3ccccc3)CS[C@H]12)c1csc(N)n1)C(=O)O` ?
Output: > 128 µg/mL

Task: MIC for `NCC[C@H](O)C(=O)N[C@@H]1C[C@H](N)[C@@H](O[C@H]2O[C@H](CN)[C@@H](O)[C@H](O)[C@H]2O)[C@H](O)[C@H]1O[C@H]1O[C@H](CO)[C@@H](O)[C@H](N)[C@H]1O` ?
Output: 16 µg/mL

###

- Tested on: Pseudomonas aeruginosa
- test-details: Antibacterial activity against VIM-2 producing Pseudomonas aeruginosa clone B3 isolate PV-05X-07 by Etest method
- Format: functional
measurement-name: MIC

Completed entries (count: 3):
compound	MIC
C[C@@H](O)[C@H]1C(=O)N2C(C(=O)O)=C(S[C@@H]3CN[C@H](C(=O)N(C)C)C3)[C@H](C)[C@H]12 [MEROPENEM]	8 µg/mL
CC(C)(O/N=C(\C(=O)N[C@@H]1C(=O)N2C(C(=O)[O-])=C(C[n+]3ccccc3)CS[C@H]12)c1csc(N)n1)C(=O)O [CEFTAZIDIME]	32 µg/mL
C[C@@H](O)[C@H]1C(=O)N2C(C(=O)O)=C(SCCNC=N)C[C@H]12 [IMIPENEM ANHYDROUS]	> 32 µg/mL

Task: // MIC lookup, key: CCN1CCN(C(=O)N[C@@H](C(=O)N[C@@H]2C(=O)N3[C@@H]2SC(C)(C)[C@@H]3C(=O)O)c2ccccc2)C(=O)C1=O [PIPERACILLIN]
Output: 48 µg/mL

Task: Query (compound): NCC[C@H](O)C(=O)N[C@@H]1C[C@H](N)[C@@H](O[C@H]2O[C@H](CN)[C@@H](O)[C@H](O)[C@H]2O)[C@H](O)[C@H]1O[C@H]1O[C@H](CO)[C@@H](O)[C@H](N)[C@H]1O [AMIKACIN] ; field requested: MIC
Output: > 128 µg/mL

Task: Any idea what MIC was measured for C[C@H]1COc2c(N3CCN(C)CC3)c(F)cc3c(=O)c(C(=O)O)cn1c23.C[C@H]1COc2c(N3CCN(C)CC3)c(F)cc3c(=O)c(C(=O)O)cn1c23.O [LEVOFLOXACIN] ?
Output: > 32 µg/mL

###

Entries and their MIC
- Test system: Pseudomonas aeruginosa
- test-details: Antibacterial activity against VIM-1 producing Pseudomonas aeruginosa clone A1 isolate FG-17X-14 by Etest method
- Assay type: functional

molecule	value-measured
NCC[C@H](O)C(=O)N[C@@H]1C[C@H](N)[C@@H](O[C@H]2O[C@H](CN)[C@@H](O)[C@H](O)[C@H]2O)[C@H](O)[C@H]1O[C@H]1O[C@H](CO)[C@@H](O)[C@H](N)[C@H]1O	8 µg/mL
C[C@@H](O)[C@H]1C(=O)N2C(C(=O)O)=C(SCCNC=N)C[C@H]12 [IMIPENEM ANHYDROUS]	> 32 µg/mL

Now look at this one.
Task: For the molecule shown here, `CCN1CCN(C(=O)N[C@@H](C(=O)N[C@@H]2C(=O)N3[C@@H]2SC(C)(C)[C@@H]3C(=O)O)c2ccccc2)C(=O)C1=O` , give the reported MIC.
Output: > 128 µg/mL

###

- System: Pseudomonas aeruginosa
- test-details: Antibacterial activity against VIM-1 producing Pseudomonas aeruginosa clone A2 isolate NA-14X-32 by Etest method
- Format: functional
Reported values of MIC for individual entries

molecule-smiles	MIC
C[C@H]1COc2c(N3CCN(C)CC3)c(F)cc3c(=O)c(C(=O)O)cn1c23.C[C@H]1COc2c(N3CCN(C)CC3)c(F)cc3c(=O)c(C(=O)O)cn1c23.O	> 32 mg/L
C[C@@H](O)[C@H]1C(=O)N2C(C(=O)O)=C(S[C@@H]3CN[C@H](C(=O)N(C)C)C3)[C@H](C)[C@H]12	> 32 mg/L

Task: Enter reported MIC observed with Pseudomonas aeruginosa for `CCN1CCN(C(=O)N[C@@H](C(=O)N[C@@H]2C(=O)N3[C@@H]2SC(C)(C)[C@@H]3C(=O)O)c2ccccc2)C(=O)C1=O`
Output: > 128 mg/L

###

- System: Pseudomonas aeruginosa
- test-details: Antibacterial activity against IMP-13 producing Pseudomonas aeruginosa clone C2 isolate NA-14X-10 by Etest method
- Type: functional
MIC: recorded values

Consider the worked cases shown below.
molecule	measurement-name	value-measured
C[C@@H](O)[C@H]1C(=O)N2C(C(=O)O)=C(S[C@@H]3CN[C@H](C(=O)N(C)C)C3)[C@H](C)[C@H]12 [MEROPENEM]	MIC	> 32 µg/mL
C[C@@H](O)[C@H]1C(=O)N2C(C(=O)O)=C(SCCNC=N)C[C@H]12 [IMIPENEM ANHYDROUS]	MIC	> 32 µg/mL
CC(C)(O/N=C(\C(=O)N[C@@H]1C(=O)N2C(C(=O)[O-])=C(C[n+]3ccccc3)CS[C@H]12)c1csc(N)n1)C(=O)O [CEFTAZIDIME]	MIC	> 128 µg/mL

Task: Which MIC value belongs to NCC[C@H](O)C(=O)N[C@@H]1C[C@H](N)[C@@H](O[C@H]2O[C@H](CN)[C@@H](O)[C@H](O)[C@H]2O)[C@H](O)[C@H]1O[C@H]1O[C@H](CO)[C@@H](O)[C@H](N)[C@H]1O [AMIKACIN] ?
Output: 16 µg/mL

Task: Endpoint output: MIC of C[C@H]1COc2c(N3CCN(C)CC3)c(F)cc3c(=O)c(C(=O)O)cn1c23.C[C@H]1COc2c(N3CCN(C)CC3)c(F)cc3c(=O)c(C(=O)O)cn1c23.O [LEVOFLOXACIN] . Value?
Output: > 32 µg/mL

Task: Need MIC, item CCN1CCN(C(=O)N[C@@H](C(=O)N[C@@H]2C(=O)N3[C@@H]2SC(C)(C)[C@@H]3C(=O)O)c2ccccc2)C(=O)C1=O [PIPERACILLIN]
Output: 16 µg/mL

###

- System: Pseudomonas aeruginosa
- test-details: Antibacterial activity against IMP-13 producing Pseudomonas aeruginosa clone C1 isolate AV-13X-28 by Etest method
- Type: functional
measurement-name: MIC (µg/mL)
Record the value in µg/mL, omitting the unit from your answer.

Task: I'd like to know its MIC. The compound in question is `CCN1CCN(C(=O)N[C@@H](C(=O)N[C@@H]2C(=O)N3[C@@H]2SC(C)(C)[C@@H]3C(=O)O)c2ccccc2)C(=O)C1=O`
Output: 24

Task: Field request: MIC | item: `NCC[C@H](O)C(=O)N[C@@H]1C[C@H](N)[C@@H](O[C@H]2O[C@H](CN)[C@@H](O)[C@H](O)[C@H]2O)[C@H](O)[C@H]1O[C@H]1O[C@H](CO)[C@@H](O)[C@H](N)[C@H]1O`
Output: 8

###

# Lookup of reported MIC keyed by entry
- Tested on: Enterobacter cloacae
- test-details: Antibacterial activity against VIM-1 producing Enterobacter cloacae isolate TO-16X-51 by Etest method
- Type: functional
Unit µg/mL implied. Number only.

Task: Given the molecule `NCC[C@H](O)C(=O)N[C@@H]1C[C@H](N)[C@@H](O[C@H]2O[C@H](CN)[C@@H](O)[C@H](O)[C@H]2O)[C@H](O)[C@H]1O[C@H]1O[C@H](CO)[C@@H](O)[C@H](N)[C@H]1O` , what is its reported MIC?
Output: 24

Task: So what's the measured MIC for this one? C[C@@H](O)[C@H]1C(=O)N2C(C(=O)O)=C(SCCNC=N)C[C@H]12 [IMIPENEM ANHYDROUS]
Output: 4

Task: MIC for `C[C@@H](O)[C@H]1C(=O)N2C(C(=O)O)=C(S[C@@H]3CN[C@H](C(=O)N(C)C)C3)[C@H](C)[C@H]12` ?
Output: 2
